read-out: xenobiotic metabolism (CYP1A2), CYP1A2 (gene 1544); experiment: CLD_CYP1A2_48hr: CellzDirect (CLD) Gene Expression Assay for xenobiotic metabolism (CYP1A2) at 48 hours (AID 2283703)
Results filed as inconclusive are left out. The source made the active and inactive calls. The calls were made as follows: active = hit-call score of the fitted dose curve at least 0.9, where 1 is the maximum; inconclusive = response in the unintended direction; inactive = score below 0.9.
Pick from 1 = active, -1 = inactive when you respond.

# example entries with known answers
COP(=S)(OC)SCn1nnc2ccccc2c1=O ... 1
CCOC(=O)C(C)OC(=O)c1cc(Oc2ccc(C(F)(F)F)cc2Cl)ccc1[N+](=O)[O-] (stereo unspecified) ... 1
CC(C)=CC1C(C(=O)OCc2coc(Cc3ccccc3)c2)C1(C)C (stereo unspecified) ... -1

Write down the call the test reported for this compound. Item: CCOc1nc(C(Cl)(Cl)Cl)ns1
1

Write down the call the test reported for this compound. Item: Cc1nc(N(C)C)nc(OC(=O)N(C)C)c1C
1

Write down the call the test reported for this compound. Item: CS(=O)(=O)c1ccc(C(=O)C2C(=O)CCCC2=O)c([N+](=O)[O-])c1
-1

Write down the call the test reported for this compound. Item: CC(C)Nc1nc(Cl)nc(NC(C)C)n1
1

Write down the call the test reported for this compound. Item: CC1(C)C(C(=O)OC(C#N)c2cccc(Oc3ccccc3)c2)C1(C)C (stereo unspecified)
-1

Write down the call the test reported for this compound. Item: COP(=S)(OC)Oc1ccc([N+](=O)[O-])c(C)c1
1

Write down the call the test reported for this compound. Item: COc1cc(OC)nc(NC(=O)NS(=O)(=O)c2ncccc2OCC(F)(F)F)n1
-1

Write down the call the test reported for this compound. Item: COc1ccc(-c2ccccc2)cc1NNC(=O)OC(C)C
1

---

read-out: Bcl-2 (BID) gene, BID (gene 637); experiment: LTEA_HepaRG_BID: Life Technologies and Expression Analysis (LTEA) Assay for Bcl-2 (BID) gene using HepaRG (AID 2283476); conditions: mRNA level, 48 h; actives raise or lower the signal
The source made the active and inactive calls. How the source made its calls: active means hit-call score of the fitted dose curve at least 0.9, where 1 is the maximum; inactive means score below 0.9.
Property name: outcome

Example entries and their recorded answers appear below.
CC1(C)C(C=C(Cl)Cl)C1C(=O)OC(C#N)c1cccc(Oc2ccccc2)c1 (stereo unspecified) ... inactive
CNC(=O)N(C)c1nnc(C(C)(C)C)s1 ... inactive
N#CN=C1SCCN1Cc1ccc(Cl)nc1 ... inactive
CCN(CC)c1nc(C)cc(OP(=S)(OC)OC)n1 ... inactive

Please look at this molecule and report its outcome: Cc1cnc(C2=NC(C)(C(C)C)C(=O)N2)c(C(=O)O)c1 (stereo unspecified)
inactive

Please look at this molecule and report its outcome: Nc1c(Cl)c(Cl)nc(C(=O)O)c1Cl
inactive

---

assay: ATG_PPRE_CIS: Attagene CIS-FACTORIAL HepG2 Assay for human Peroxisome Proliferator-activated Response Element (PPRE) (AID 2282958); conditions: HepG2 PPRE cis-element reporter, Attagene transcription factor profiling; actives raise or lower the signal
Active and inactive are the calls of the source. How the source made its calls: active means hit-call score of the fitted dose curve at least 0.9, where 1 is the maximum; inactive means score below 0.9.
Pick from label 1 for active, label 0 for inactive when you respond.

# example entries with known answers
CC(C)C1(C)N=C(c2ncccc2C(=O)O)NC1=O (stereo unspecified) ... label 0
COCc1cnc(C2=NC(C)(C(C)C)C(=O)N2)c(C(=O)O)c1 (stereo unspecified) ... label 0
CCSC(=O)N1CCCCCC1 ... label 0
CC1(C)CCC(=Cc2ccc(Cl)cc2)C1(O)Cn1cncn1 (stereo unspecified) ... label 1
Clc1nc(Cl)nc(Nc2ccccc2Cl)n1 ... label 1

Write down the call the test reported for this compound. Item: CO/N=C(/C1=NOCCO1)c1ccccc1Oc1ncnc(Oc2ccccc2Cl)c1F
label 0

Write down the call the test reported for this compound. Item: CC(C)NC(=O)N1CC(=O)N(c2cc(Cl)cc(Cl)c2)C1=O
label 1

Write down the call the test reported for this compound. Item: COC(=O)NC(=S)Nc1ccccc1NC(=S)NC(=O)OC
label 1

Write down the call the test reported for this compound. Item: O=c1n(Cl)c(=O)n(Cl)c(=O)n1Cl
label 0

Write down the call the test reported for this compound. Item: CCOC(=O)C(C)OC(=O)c1cc(Oc2ccc(C(F)(F)F)cc2Cl)ccc1[N+](=O)[O-] (stereo unspecified)
label 1

Write down the call the test reported for this compound. Item: CS(=O)(=O)c1ccc(C(=O)C2C(=O)CCCC2=O)c([N+](=O)[O-])c1
label 0

Where do the numbers come from? From PubChem BioAssay (EPA / NIEHS).
